Known Activity of a selection of molecules
System: Receptor-type tyrosine-protein kinase FLT3 (Homo sapiens), P36888 [UNDEFINED MUTATION]
Sequence (P36888 whole entry, looked up, stated change not applied, the tested form may be a part): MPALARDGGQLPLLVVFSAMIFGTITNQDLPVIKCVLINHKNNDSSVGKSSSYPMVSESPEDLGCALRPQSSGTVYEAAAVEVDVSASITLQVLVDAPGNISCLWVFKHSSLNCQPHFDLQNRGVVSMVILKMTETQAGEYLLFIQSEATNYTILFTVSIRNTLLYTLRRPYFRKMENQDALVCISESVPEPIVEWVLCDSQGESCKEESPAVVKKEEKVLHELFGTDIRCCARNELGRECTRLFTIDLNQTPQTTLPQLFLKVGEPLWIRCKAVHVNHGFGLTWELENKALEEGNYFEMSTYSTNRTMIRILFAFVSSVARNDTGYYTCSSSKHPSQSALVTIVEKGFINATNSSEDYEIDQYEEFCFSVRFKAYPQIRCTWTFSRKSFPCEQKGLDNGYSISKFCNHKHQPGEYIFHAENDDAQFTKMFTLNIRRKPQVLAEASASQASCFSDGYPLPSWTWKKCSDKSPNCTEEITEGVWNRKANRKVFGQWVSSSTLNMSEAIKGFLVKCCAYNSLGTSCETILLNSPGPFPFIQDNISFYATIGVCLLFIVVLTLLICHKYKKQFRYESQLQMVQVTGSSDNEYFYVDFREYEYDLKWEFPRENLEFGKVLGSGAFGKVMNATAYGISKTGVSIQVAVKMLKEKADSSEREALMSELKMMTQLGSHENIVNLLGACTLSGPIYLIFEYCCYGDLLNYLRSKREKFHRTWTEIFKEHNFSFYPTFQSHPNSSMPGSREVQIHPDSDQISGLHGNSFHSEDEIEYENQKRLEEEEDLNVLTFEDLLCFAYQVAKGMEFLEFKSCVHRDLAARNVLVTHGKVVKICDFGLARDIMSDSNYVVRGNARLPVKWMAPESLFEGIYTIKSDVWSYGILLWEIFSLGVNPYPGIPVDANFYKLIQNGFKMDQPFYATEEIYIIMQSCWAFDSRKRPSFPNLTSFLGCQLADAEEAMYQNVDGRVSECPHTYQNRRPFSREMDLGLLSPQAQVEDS
Experiment: Inhibition of recombinant human N-terminal GST/His6-fused FLT3 ITD mutant (R571 to S993 residues) expressed in Sf9 insect cells assessed as residual activity at 2 uM using ULightTM-TK peptide as substrate incubated for 90 mins under dark condition by FRET assay relative to control
readout.kind: Activity (%)

INSERT INTO assay_data (structure_notation, numeric_value) VALUES
  ('O=S(=O)(NCCNC/C=C/c1ccc(-c2cn[nH]c2)cc1)c1cccc2cnccc12', 14),
  ('O=S(=O)(NCCNC/C=C/c1ccc(-c2cnc3ccccc3c2)cc1)c1cccc2cnccc12', 9),
  ('O=S(=O)(NCCNC/C=C/c1ccc(-c2cccnc2)cc1)c1cccc2cnccc12', 13),
  ('O=S(=O)(NCCNC/C=C/c1ccc(-c2cncnc2)cc1)c1cccc2cnccc12', 13);
